Where these numbers come from: the RNAGym collection of RNA variant scans (doi:10.1126/science.aae0568)

B1: tRNA (parent)
chain: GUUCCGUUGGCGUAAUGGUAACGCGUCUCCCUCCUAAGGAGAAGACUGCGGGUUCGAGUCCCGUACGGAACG

- Variants of: B1
- PROTOCOL_DETAILS: yeast fitness relative to wild type (ratio to wild type); higher = fitter; tRNA-Arg(CCU), competitive growth, 37 C, YPD
Variants at the floor of the assay were thinned out.
Listing of entries alongside the reported yeast fitness.
Form rule: numeric answer, no unit written next to it.

Some variants with recorded yeast fitness:
MUTATION_ID | yeast fitness
A21U A37U C60G | 0.608
U2A C5A G56A | 0.526
C5U U13G A42U | 0.627
C4A C11A C33G | 0.544
C5G C46U G50A | 0.731
C55G A69G | 0.627
C4U G25A G67C | 0.58
C4A G12C U19C C24G A43U C61A | 0.502

Then there is this variant:
Param item = A21G C46U C66U ; retrieve measured yeast fitness.
0.742
